- test-details: yeast display, Sf9 membrane polyspecificity reagent, FACS + sequencing; frameworks hold sequencing errors

[
  {
    "polymer-sequence": "QVQLVESGGGLVQAGGSLRLSCAASGITFDYYAMGWYRQAPGKERELVAAISWGGGSTYYADSVKGRFTISRDNAKNTVYLQMNSLKQEDTAVYYCAAVIVYSPSSYVRPGDYWGQGTQVTVSS",
    "polyreactivity (PSR sort gate)": "low polyreactivity"
  },
  {
    "polymer-sequence": "QVQLVESGGGLVQAGGSLRLSCAASGSTFYFNAMGWYRPAPGKERELVAAIDWSGGSTYYADSVKGRFTISRDNAKNTVYLQMNSLKPEDTAVYYCAADISVGRYGDMDYYYKVDYWGQGTQVTVSS",
    "polyreactivity (PSR sort gate)": "low polyreactivity"
  },
  {
    "polymer-sequence": "QVQLVESGGGLVQAGGSLRLSCAASGITFPLYVMGWSRQAPGKERELVAAISASGGSTYADSVKGRFTISRDNAKNTVYLQMNSLKPEDTAVYYCNADVYVGYDYDYWGQGTLVTVSS",
    "polyreactivity (PSR sort gate)": "low polyreactivity"
  }
]

====

- test-details: yeast display, Sf9 membrane polyspecificity reagent, FACS + sequencing; frameworks hold sequencing errors
metric: polyreactivity (PSR sort gate)

Study these solved cases before continuing.
[
  {
    "polymer-sequence": "QVQLVESGGGLVQAGGSLRLICAASGRIFYDNALGWYRQAPGKERELVAAISESGTSTYYADSVKGRFTISRDNAKNTVYLQMNSLKPEDTAVYYCAAYFTWNRKVFYYWGQGTQVTVSS",
    "polyreactivity (PSR sort gate)": "high polyreactivity"
  },
  {
    "polymer-sequence": "QVQLVESGGGLVQAGGSLRLSCAASGFTFRSNVMGWSRQAPGKERELVAGITQRGGRTYYADSEKGRFTISRDNAKNTVYLQMNSLKPEDTAVYYCAADRSEYDYWGQGTQVTVSS",
    "polyreactivity (PSR sort gate)": "high polyreactivity"
  },
  {
    "polymer-sequence": "QVQLVESGGGLVQAGGSLRLSCAASGFIFVANAMGWYRQAPGKERELVAAISFSGGRTYYADSVKGRFTISRDNAKNTVYLQMNSLKPEDTAVYYCNTVSEWWAGDHPDAEFDYWGQGTQVTVSS",
    "polyreactivity (PSR sort gate)": "low polyreactivity"
  },
  {
    "polymer-sequence": "QVQLVESVGGLVQAGGSLRLTCAASGSIFKYYDMGWYRQAPGTERELVAAISSNGGRTYYADSVKGRFTISRDNAKNTDYLQMNSLKPEDTAVYYCARRFRRTGESEYDYWGQGTQVNVSS",
    "polyreactivity (PSR sort gate)": "high polyreactivity"
  },
  {
    "polymer-sequence": "QVQLVESGGGLVQAGGSLRLSCAASGRSFKYNAMGWYRQAPGKERELVAAISISGGSTYYADSVKGRFTISRDNAKNTVYLQMNSLKPEDTAVYYCNDDTYYLSDYVTFDYWGQGTQVTVSS",
    "polyreactivity (PSR sort gate)": "low polyreactivity"
  }
]

Your task in this section: give polyreactivity (PSR sort gate) for each listed record.
1. QFQLVESGGGLVQAGGSLRLSCAASGRIFYSNAMGWYRQAPGKERELVAAISSSGGITYYADSVKGRFTISRDNAKNTVNLQMNSLKPEDSAVYYCAVDSRHYIRAFDHWGQGTQVTVSS
2. QVQLVESGGVLVQAGGSLRLSCAASGSIFGTYAMGWYRRAPGKERELVAAITSDGVDTYYADSVKGRFTISRDNAKITVYLQMNSLKPEDTAVYYGAAEYEGLYGYGYWGQGTQVTVSS
3. QVQLVESGGGLVQAGGSLRLSCAASGITFSYYAMGWYRPAPGKERELVAAINSGGGSTYYADSVKGRFTISRDNAKNTVFLQMNSLKPDDTAVYYCAARYRSRYEYYYDRDYWGQGTQVSVSS

1: low polyreactivity; 2: high polyreactivity; 3: low polyreactivity

====

- test-details: yeast display, Sf9 membrane polyspecificity reagent, FACS + sequencing; frameworks hold sequencing errors
metric: polyreactivity (PSR sort gate)

[
  {
    "polymer-sequence": "QDQLVESGGGLVQAGGSLRLSCAASGSIFQSNAMGWYRQAPGKERELVAAITSVGRTNYADSVKGRFTIARDNAKNTVYLQMNSLKPEDTAVYYCAADLRGDNRYYYWGQGTQVTVSS",
    "reported": "low polyreactivity"
  },
  {
    "polymer-sequence": "QVQLVESGGGLVQAGGSLGLSCAASGFIFVRYAMGWYRQATGKERELVGAITSTGSTYYADSVKGRFTISRDKAKNTVYLQMNSLKPEDTAVYYCAAVSRTSITFGYYAEYDYWGQGTQVTVSS",
    "reported": "low polyreactivity"
  }
]

====

- test-details: yeast display, Sf9 membrane polyspecificity reagent, FACS + sequencing; frameworks hold sequencing errors
metric: polyreactivity (PSR sort gate)

Study these solved cases before continuing.
[
  {
    "polymer-sequence": "QVQLVESGGGLVQAGGSLRLSCAASGRIFYANDMGWYRQAPGKERELVAAITNTVSTTYADSVKGRFTISRDNAKNTVYLQMNSLKPEDTAVYYCNADDPYVPKADMGYWGQGTQVTVSS",
    "polyreactivity (PSR sort gate)": "low polyreactivity"
  },
  {
    "polymer-sequence": "QVQLVESGGGLVQAGVSLRLSCAASGLIFWAYAMGWYRQAPGKERELVAAINSGGRTYYADSVKGRFTISRDNAKNTVYLQMNSLKPEDTAVYYCAAAGVYSSDYWGQCTQVTVSS",
    "polyreactivity (PSR sort gate)": "low polyreactivity"
  },
  {
    "polymer-sequence": "QVQLVESGGRLDQAGGSLRLSCAASASTFKEYPMGWYRQAPGKERELVAAISKSGDSTYYADSVKGRFTISRDNAKNTVYLQMNSLKPEDTAVYYCAADTFSFRWSDYWGLGTQVTVSS",
    "polyreactivity (PSR sort gate)": "low polyreactivity"
  },
  {
    "polymer-sequence": "QVQLVESGGGLVQAGGSLRLSCAASGFTIFIYAMGWYRQAPGKEREFVAAITGSGGSTYYADSVKGRFTISRDNAKNTVYLQMNSLKPEDTAVYYCAAESEYVYWYYVDYDYWGQGTQVTVSS",
    "polyreactivity (PSR sort gate)": "high polyreactivity"
  },
  {
    "polymer-sequence": "QVQLVESGGGLVQAGGSLRLSCAASGRTFAWNAMGWYRQAPRKERELVARIRSSGSTYYADSVKGRFTISRDNAKNTVYLQMNSLKPVDTAVYFCAADIRFWYGYYYWGQGTQVTVSS",
    "polyreactivity (PSR sort gate)": "high polyreactivity"
  }
]

Your task in this section: give polyreactivity (PSR sort gate) for each listed record.
1. QVHLVETGGGLDQAGGSLRLSCAASGYTFKTNDMRAYSPPPGKDREFVAAISAIGASTYYADSVKGRFTISRDTAKNTVYLQMKSLKPEDTAVYYCATGPYPLWYVWTDGYDHWGQGTQVPVSS
2. QVQLVESGGGLVQAGGSLRLSCAASGLIFVNAMGWYRQAPGKEREFVAAITYSTGSTYYADSVKGRFTISRDNAKNTVYLQMNRLKPEDTAVYYCAKDRSGHGTERDYWGQGTQVTVSS

1. low polyreactivity
2. low polyreactivity

Your task in this section: give polyreactivity (PSR sort gate) for each listed record.
1. QVQLVESGGGLVQAGGSLRLSCAASGSTFTYNAMGWYRQAPGKERELVASISSGTTTYYADSVKGRFTISRDNAKNTVYFQMHSLKPEDTAVYYCAVDSWSRVQGWLAHNYDYWGQGTQVTVSS
2. QVQLVESGGGLVQAGGSLRLSCAASGFTVIDYAMGWYSQAPGKERELVAAITTGTITYYADSVTGRFTISRDNAKNTVYLQMNSLKPEDTAVYYCNADWLTLATTMNYWGQGTQVTVSS
3. QVQHVESGRGLVQAGGSLRLSCAASGITFNQYAMGWYRQAPGKERELVAGISYSGGSTYYADSVKGRFTISRDNAKNTVYFQMISLKPEDTAVYYCAKRSPFTLDYWGQGTQVTVSS

low polyreactivity
low polyreactivity
high polyreactivity

====

- test-details: yeast display, Sf9 membrane polyspecificity reagent, FACS + sequencing; frameworks hold sequencing errors

[
  {
    "polymer-sequence": "QVQLVESGGGLVQAGGSLRLSCAASGRIIWKNTMGWYRQAPGKERELVAAITYGGSTNYADSVKGRFTISRDNAKNTVYLQMNSLKPEDTAVYYCNAQISWDSGWGYSYHLDYWGQGTQVTVSS",
    "polyreactivity (PSR sort gate)": "low polyreactivity"
  },
  {
    "polymer-sequence": "QVQLVESGGGLVQAGGSLRLSCAASGSIFSDNAMGWYRQAPGKERELVAAISWIGDSTDYADSVKGRFTISRDNAKNTVYLQMNSLKPEDTAVYYCAGDAKVVSPRYRANDIGMYYWGQGTQVTVSS",
    "polyreactivity (PSR sort gate)": "low polyreactivity"
  }
]
